B1: Gamma-crystallin C, residues 91 to 170; numbered along this chain, P07315 (parent)
chain: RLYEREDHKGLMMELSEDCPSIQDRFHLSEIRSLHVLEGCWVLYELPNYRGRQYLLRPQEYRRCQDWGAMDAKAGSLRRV

# Variants of: B1
# Method Summary: abundance fitness (aPCA) (normalised: wild type 0, dead -1); higher = more abundant; growth selection in yeast, the domain comes from the species named
# Condition Label: Homo sapiens
Readout Type: abundance fitness
Kindly provide the number alone.

Worked set:
I31S :: -0.665
G39C :: -0.536

Value of measured abundance fitness for the entry Y49P : -0.942

// recorded abundance fitness for P58N : -0.268

Entry R62P ; abundance fitness = -0.196

The variant E30Y showed abundance fitness equal to -0.145

Per the record, L43F has abundance fitness of -0.645

The reported value for L2M in terms of abundance fitness is -0.346

The recorded abundance fitness for entry A69C equals -0.621

The reported value for M12I in terms of abundance fitness is -0.242

The variant listed as I31A shows abundance fitness equal to -0.611

Measured abundance fitness of D66Y : -0.603

Entry E6D , abundance fitness reported as -0.538

Reported abundance fitness ( C40L ) = -0.042

Per the records, this variant ( E17T ) has abundance fitness equal to -0.231

Briefly, abundance fitness measured for Y49W : -0.551

Value of abundance fitness reported for the variant L11T is -0.049
